ASSAY_TEXT: Equilibrium solubility, saturation shake-flask, centrifugation as phase separation
DETAILS: Britton-Robinson buffer, 25 °C, pH 6.4, aqueous buffer, thermodynamic from solid, Equilibrium solubility S sed, pH 6.4; sedimented before centrifugation; 10,000 rpm, 20 min
Structures can show the parent of a compound that is named as a salt.
MEASURED_PARAMETER: solubility thermodynamic (µg/mL)
All answers are understood in µg/mL, so give the number only.

Given item COc1ccc(Cc2nccc3cc(OC)c(OC)cc23)cc1OC [PAP-HCL, papaverine hydrochloride] , the value recorded as its solubility thermodynamic is 31.2

###

ASSAY_TEXT: Equilibrium solubility, saturation shake-flask, centrifugation as phase separation
DETAILS: Britton-Robinson buffer, 25 °C, pH 3, aqueous buffer, thermodynamic from solid, Equilibrium solubility S sed, pH 3.0; sedimented before centrifugation; 10,000 rpm, 5 min
Structures can show the parent of a compound that is named as a salt.
MEASURED_PARAMETER: solubility thermodynamic

For record COc1ccc(Cc2nccc3cc(OC)c(OC)cc23)cc1OC [PAP-HCL, papaverine hydrochloride] the listed solubility thermodynamic is 39.5 mg/mL
